This collection of values is drawn from ChEMBL document CHEMBL1909294.

tested on: Hepatotoxicity
Measured attribute: HepSE_bilirubinemia
Give bare numbers.

| Compound | System | Val |
| --- | --- | --- |
| CO[C@@]1(NC(=O)Cc2cccs2)C(=O)N2C(C(=O)O)=C(COC(N)=O)CS[C@@H]21 | Hepatotoxicity | 0 |
| CCc1c2c(nc3ccc(OC(=O)N4CCC(N5CCCCC5)CC4)cc13)-c1cc3c(c(=O)n1C2)COC(=O)[C@]3(O)CC | Hepatotoxicity | 0 |
| CN1CCc2cccc3c2[C@H]1Cc1ccc(O)c(O)c1-3 | Hepatotoxicity | 0 |
| O=C1CCC(N2C(=O)c3ccccc3C2=O)C(=O)N1 (stereo not drawn) [THALIDOMIDE] | Hepatotoxicity | 1 |

Would you mind listing HepSE_bilirubinemia for each of the following compounds?
1. CNCCC(Oc1ccc(C(F)(F)F)cc1)c1ccccc1 (stereo not drawn)
2. CC(=O)[C@H]1CC[C@H]2[C@@H]3CCC4=CC(=O)CC[C@]4(C)[C@H]3CC[C@]12C
3. CN1CC(=O)N2[C@H](c3ccc4c(c3)OCO4)c3[nH]c4ccccc4c3C[C@@H]2C1=O
4. Fc1ccc([C@@H]2CCNC[C@H]2COc2ccc3c(c2)OCO3)cc1

0
0
0
1

====

Measured HepSE_liver disease on Hepatotoxicity follows.
Answers are plain numbers.

| Compound | Measured attribute | Val |
| --- | --- | --- |
| CC(CCc1ccc(O)cc1)NCCc1ccc(O)c(O)c1 (stereo not given) [DOBUTAMINE] | HepSE_liver disease | 0 |
| CC(=O)O[C@]1(C(C)=O)CC[C@H]2[C@@H]3C=C(C)C4=CC(=O)CC[C@]4(C)[C@H]3CC[C@@]21C [MEGESTROL ACETATE] | HepSE_liver disease | 0 |

Can you give me HepSE_liver disease for all of these, one by one?
1. CCN(CC)C(=O)/C(C#N)=C/c1cc(O)c(O)c([N+](=O)[O-])c1 [ENTACAPONE]
2. CCCSc1ccc2nc(NC(=O)OC)[nH]c2c1 [ALBENDAZOLE]
3. Clc1ccc(CO/N=C(\Cn2ccnc2)c2ccc(Cl)cc2Cl)c(Cl)c1 [OXICONAZOLE]
4. CCNC(=O)CCC/C=C\C[C@@H]1[C@@H](/C=C/[C@@H](O)CCc2ccccc2)[C@H](O)C[C@@H]1O [BIMATOPROST]
5. CCCCc1nc(N)[se]c1CCC
6. FC(F)(F)C(Cl)Br (stereo not given) [HALOTHANE]
7. C#Cc1cccc(Nc2ncnc3cc(OCCOC)c(OCCOC)cc23)c1 [ERLOTINIB]
8. C=C1/C(=C\C=C2/CCC[C@]3(C)[C@@H]([C@H](C)CCCC(C)(C)O)CC[C@@H]23)C[C@@H](O)C[C@@H]1O [CALCITRIOL]

[0, 1, 0, 0, 0, 0, 1, 0]

Parameter requested: HepSE_liver disease. Apply to each item below.
1. CC[C@@H]1/C=C(\C)C[C@H](C)C[C@H](OC)[C@H]2O[C@@](O)(C(=O)C(=O)N3CCCC[C@H]3C(=O)O[C@H](/C(C)=C/[C@@H]3CC[C@H](Cl)[C@H](OC)C3)[C@H](C)[C@@H](O)CC1=O)[C@H](C)C[C@@H]2OC [PIMECROLIMUS]
2. CC(=O)O[C@@]12CO[C@@H]1C[C@H](O)[C@@]1(C)C(=O)[C@H](O)C3=C(C)[C@@H](OC(=O)[C@H](O)[C@@H](NC(=O)OC(C)(C)C)c4ccccc4)C[C@@](O)([C@@H](OC(=O)c4ccccc4)[C@H]21)C3(C)C.O.O.O [DOCETAXEL]
3. COc1cc(NCc2ccc3nc(N)nc(N)c3c2C)cc(OC)c1OC [TRIMETREXATE]

1. 0
2. 0
3. 0

Please report HepSE_liver disease for every entry that follows.
1. C#CCN(C)[C@H](C)Cc1ccccc1 [SELEGILINE]
2. CCC(C)n1ncn(-c2ccc(N3CCN(c4ccc(OCC5COC(Cn6cncn6)(c6ccc(Cl)cc6Cl)O5)cc4)CC3)cc2)c1=O (stereo not given) [ITRACONAZOLE]

0
1

====

These records show HepSE_Combined Scores for Hepatotoxicity.
Numbers only.

Recorded HepSE_Combined Scores, per entry:
| Molecule | System | HepSE_Combined Scores |
| --- | --- | --- |
| C[C@]12COC(=O)C[C@@H]1CC[C@@H]1[C@@H]2CC[C@@]2(C)[C@H]1CC[C@]2(C)O | Hepatotoxicity | 2 |
| O=C(O)c1cc(=O)c2c(OCC(O)COc3cccc4oc(C(=O)O)cc(=O)c34)cccc2o1 | Hepatotoxicity | 1 |
| COc1cc2c(cc1OC)[C@@H](Cc1cc(OC)c(OC)c(OC)c1)[N+](C)(CCCOC(=O)CC/C=C/CCC(=O)OCCC[N+]1(C)CCc3cc(OC)c(OC)cc3[C@H]1Cc1cc(OC)c(OC)c(OC)c1)CC2 (stereo not given in full) | Hepatotoxicity | 0 |
| CN(C)[C@@H]1C(O)=C(C(N)=O)C(=O)[C@@]2(O)C(O)=C3C(=O)c4c(O)cccc4[C@@](C)(O)[C@H]3C[C@@H]12 | Hepatotoxicity | 1 |
| N[C@@H](Cc1c[nH]c2ccccc12)C(=O)O | Hepatotoxicity | 0 |
| C[N+]1(C)[C@@H]2C[C@@H](OC(=O)C(O)(c3cccs3)c3cccs3)C[C@H]1[C@@H]1O[C@@H]12 | Hepatotoxicity | 0 |
| C[C@@H]1C[C@H]2[C@@H]3CCC4=CC(=O)C=C[C@]4(C)[C@@]3(F)[C@@H](O)C[C@]2(C)[C@H]1C(=O)CO | Hepatotoxicity | 0 |
| O=C(O)CCC(=O)O.O=C(O[C@H]1CN2CCC1CC2)N1CCc2ccccc2[C@@H]1c1ccccc1 [SOLIFENACIN SUCCINATE] | Hepatotoxicity | 1 |
| CN1CCC(=C2c3ccccc3CCc3sccc32)CC1 | Hepatotoxicity | 0 |
| C=C1[C@H](CO)[C@@H](O)C[C@@H]1n1cnc2c(=O)[nH]c(N)nc21.O | Hepatotoxicity | 2 |

Parameters: items (list). Returns: HepSE_Combined Scores for each item.
1. CC(C)N(CCC(C(N)=O)(c1ccccc1)c1ccccn1)C(C)C (stereo not given) [DISOPYRAMIDE]
2. CCCCc1ncc(/C=C(\Cc2cccs2)C(=O)O)n1Cc1ccc(C(=O)O)cc1
3. CCCCc1nc(Cl)c(CO)n1Cc1ccc(-c2ccccc2-c2nn[nH]n2)cc1
4. CC[C@@]1(O)C(=O)OCc2c1cc1n(c2=O)Cc2cc3c(CN(C)C)c(O)ccc3nc2-1
5. CO[C@H]1/C=C/O[C@@]2(C)Oc3c(C)c(O)c4c(O)c(c(/C=N/N5CCN(C)CC5)c(O)c4c3C2=O)NC(=O)/C(C)=C\C=C\[C@H](C)[C@H](O)[C@@H](C)[C@@H](O)[C@@H](C)[C@H](OC(C)=O)[C@@H]1C

1. 1
2. 0
3. 2
4. 1
5. 3

====

tested on: Hepatotoxicity
Measured attribute: HepSE_hepatic failure
Answers are plain numbers.

Example entries and their recorded answers appear below.
| Molecule | System | HepSE_hepatic failure |
| --- | --- | --- |
| CC(C)(C)NC[C@H](O)COc1ccccc1C1CCCC1 [PENBUTOLOL] | Hepatotoxicity | 0 |
| COc1ccc(C(CN(C)C)C2(O)CCCCC2)cc1 (configuration not stated) [VENLAFAXINE] | Hepatotoxicity | 0 |
| C=CCC1(C(C)CCC)C(=O)NC(=O)NC1=O (configuration not stated) [SECOBARBITAL] | Hepatotoxicity | 0 |
| CCN1CCN(C(=O)N[C@@H](C(=O)N[C@@H]2C(=O)N3[C@@H]2SC(C)(C)[C@@H]3C(=O)O)c2ccccc2)C(=O)C1=O [PIPERACILLIN] | Hepatotoxicity | 0 |
| CCC(C)n1ncn(-c2ccc(N3CCN(c4ccc(OCC5COC(Cn6cncn6)(c6ccc(Cl)cc6Cl)O5)cc4)CC3)cc2)c1=O (configuration not stated) [ITRACONAZOLE] | Hepatotoxicity | 1 |

Please give HepSE_hepatic failure, item by item, for the list that follows.
1. CS(=O)(=O)c1ccc(C2=C(c3ccccc3)C(=O)OC2)cc1 [ROFECOXIB]
2. CNC(=O)c1c(I)c(NC(C)=O)c(I)c(C(=O)[O-])c1I.[Na+] [IOTHALAMATE SODIUM]
3. CC1(C)O[C@@H]2C[C@H]3[C@@H]4CCC5=CC(=O)CC[C@]5(C)[C@@]4(F)[C@@H](O)C[C@]3(C)[C@]2(C(=O)CCl)O1 [HALCINONIDE]
4. C[N+]1(C)CCCC(OC(=O)C(O)(c2ccccc2)c2ccccc2)C1.[Br-] (configuration not stated) [MEPENZOLATE BROMIDE]
5. NC[C@H]1O[C@H](O[C@H]2[C@H](O)[C@@H](O[C@H]3O[C@H](CO)[C@@H](O)[C@H](N)[C@H]3O)[C@H](N)C[C@@H]2N)[C@H](N)C[C@@H]1O [TOBRAMYCIN]
6. COC1=CC(=O)C[C@@H](C)[C@]12Oc1c(Cl)c(OC)cc(OC)c1C2=O [GRISEOFULVIN]
7. Cc1[nH]c(=O)c(C#N)cc1-c1ccncc1 [MILRINONE]

1: 1; 2: 0; 3: 0; 4: 0; 5: 0; 6: 0; 7: 0
